experimental_protocol: Cell viability in pre-screen (Table 1)
Type: cell-based
condition_context: 50 uM
quantity_kind: % Viability
Form field: result (number plus unit)

Recorded % Viability (compound COc1ccc(OC2OC3COC(c4ccccc4)OC3C(OC3OC(COC(=O)CCl)C(OC(=O)CCl)C(OC(C)=O)C3OC(C)=O)C2NC(=O)C(Cl)(Cl)Cl)cc1 (stereo not drawn) ): 20%

Recorded % Viability (compound COc1ccc(O[C@H]2O[C@@H]3COC(c4ccccc4)O[C@H]3[C@H](O[C@@H]3O[C@H](COC(=O)CCC(C)=O)[C@@H](O)[C@H](OC(C)=O)[C@H]3OC(C)=O)[C@H]2NC(=O)C(Cl)(Cl)Cl)cc1 (stereo partly drawn) ): 129%

Recorded % Viability (compound COc1ccc(O[C@H]2O[C@@H]3COC(c4ccccc4)O[C@H]3[C@H](O[C@@H]3O[C@H](CO)[C@@H](OC(=O)CCl)[C@H](OC(C)=O)[C@H]3OC(C)=O)[C@H]2NC(=O)C(Cl)(Cl)Cl)cc1 (stereo partly drawn) ): 13%

----------
Recorded % Viability by entry
experimental_protocol: Cell viability in pre-screen (Table 1)
Type: cell-based
condition_context: 50 uM
Field: numeric (%). Do not append units.

Recorded % Viability (compound COc1ccc(O[C@H]2O[C@@H]3COC(c4ccccc4)O[C@H]3[C@H](O)[C@H]2NC(=O)C(Cl)(Cl)Cl)cc1 (some centres unmarked) ): 70

Recorded % Viability (compound COc1ccc(O[C@H]2O[C@@H]3COC(c4ccccc4)O[C@H]3[C@H](O[C@@H]3O[C@H](COC(=O)CCl)[C@@H](OC(C)=O)[C@H](OC(C)=O)[C@H]3OC(C)=O)[C@H]2NC(=O)C(Cl)(Cl)Cl)cc1 (some centres unmarked) ): 85

Recorded % Viability (compound COc1ccc(O[C@H]2O[C@@H]3COC(c4ccccc4)O[C@H]3[C@H](O[C@@H]3O[C@H](CO)[C@@H](OC(C)=O)[C@H](OC(C)=O)[C@H]3OC(C)=O)[C@H]2NC(=O)C(Cl)(Cl)Cl)cc1 (some centres unmarked) ): 95

Recorded % Viability (compound COc1ccc(O[C@@H]2O[C@H](COC(=O)CCC(C)=O)[C@@H](OC(=O)CCl)[C@H](OC(C)=O)[C@H]2OC(C)=O)cc1 ): 81

Recorded % Viability (compound CC(=O)CCC(=O)OC[C@H]1O[C@@H](O[C@H]2[C@@H]3OC(c4ccccc4)OC[C@H]3OC(O)[C@@H]2NC(=O)C(Cl)(Cl)Cl)[C@H](OC(C)=O)[C@@H](OC(C)=O)[C@@H]1OC(=O)CCl (some centres unmarked) ): 33

Recorded % Viability (compound COc1ccc(O[C@H]2O[C@@H]3COC(c4ccccc4)O[C@H]3[C@H](O[C@@H]3O[C@H](CO)[C@@H](O)[C@H](OC(C)=O)[C@H]3OC(C)=O)[C@H]2NC(=O)C(Cl)(Cl)Cl)cc1 (some centres unmarked) ): 10

Recorded % Viability (compound COc1ccc(O[C@@H]2O[C@@H]3COC(c4ccccc4)O[C@H]3[C@H](O)[C@H]2O)cc1 (some centres unmarked) ): 108

Recorded % Viability (compound COc1ccc(O[C@H]2O[C@@H]3COC(c4ccccc4)O[C@H]3[C@H](O[C@@H]3O[C@H](COC(=O)CCC(C)=O)[C@@H](OS(=O)(=O)O)[C@H](OC(C)=O)[C@H]3OC(C)=O)[C@H]2NC(=O)C(Cl)(Cl)Cl)cc1 (some centres unmarked) ): 98

Recorded % Viability (compound COc1ccc(O[C@H]2O[C@@H]3COC(c4ccccc4)O[C@H]3[C@H](O[C@@H]3O[C@H](COC(=O)CCC(C)=O)[C@@H](OC(C)=O)[C@H](OC(C)=O)[C@H]3OC(C)=O)[C@H]2NC(=O)C(Cl)(Cl)Cl)cc1 (some centres unmarked) ): 99

Recorded % Viability (compound COc1ccc(OC2OC3COC(c4ccccc4)OC3C(OC3OC(COC(=O)CCC(C)=O)C(OC(=O)CCl)C(OC(C)=O)C3OC(C)=O)C2NC(=O)C(Cl)(Cl)Cl)cc1 (centres unmarked) ): 114

Recorded % Viability (compound COc1ccc(O[C@@H]2O[C@H](COC(C)=O)[C@@H](OC(C)=O)[C@H](OC(C)=O)[C@H]2OC(C)=O)cc1 ): 105

----------
experimental_protocol: Cell viability in pre-screen (Table 1)
Assay type: cell-based
condition_context: 10 uM
quantity_kind: % Viability (%)
Field: numeric (%). Do not append units.

- compound: "COc1ccc(O[C@@H]2O[C@H](COC(C)=O)[C@@H](OC(C)=O)[C@H](OC(C)=O)[C@H]2OC(C)=O)cc1"
  % Viability [%]: 118

Recorded % Viability (compound COc1ccc(O[C@H]2O[C@@H]3COC(c4ccccc4)O[C@H]3[C@H](O)[C@H]2NC(=O)C(Cl)(Cl)Cl)cc1 (stereo partly drawn) ): 82

Recorded % Viability (compound COc1ccc(O[C@@H]2O[C@@H]3COC(c4ccccc4)O[C@H]3[C@H](O)[C@H]2O)cc1 (stereo partly drawn) ): 120

Recorded % Viability (compound COc1ccc(O[C@@H]2O[C@H](COC(=O)CCC(C)=O)[C@@H](OC(=O)CCl)[C@H](OC(C)=O)[C@H]2OC(C)=O)cc1 ): 85

Recorded % Viability (compound COc1ccc(O[C@H]2O[C@@H]3COC(c4ccccc4)O[C@H]3[C@H](O[C@@H]3O[C@H](COC(=O)CCC(C)=O)[C@@H](OS(=O)(=O)O)[C@H](OC(C)=O)[C@H]3OC(C)=O)[C@H]2NC(=O)C(Cl)(Cl)Cl)cc1 (stereo partly drawn) ): 95

Recorded % Viability (compound COc1ccc(OC2OC3COC(c4ccccc4)OC3C(OC3OC(COC(=O)CCC(C)=O)C(OC(=O)CCl)C(OC(C)=O)C3OC(C)=O)C2NC(=O)C(Cl)(Cl)Cl)cc1 (stereo not drawn) ): 112

Recorded % Viability (compound COc1ccc(O[C@H]2O[C@@H]3COC(c4ccccc4)O[C@H]3[C@H](O[C@@H]3O[C@H](COC(=O)CCC(C)=O)[C@@H](O)[C@H](OC(C)=O)[C@H]3OC(C)=O)[C@H]2NC(=O)C(Cl)(Cl)Cl)cc1 (stereo partly drawn) ): 115

Recorded % Viability (compound COc1ccc(O[C@H]2O[C@@H]3COC(c4ccccc4)O[C@H]3[C@H](O[C@@H]3O[C@H](COC(=O)CCC(C)=O)[C@@H](OC(C)=O)[C@H](OC(C)=O)[C@H]3OC(C)=O)[C@H]2NC(=O)C(Cl)(Cl)Cl)cc1 (stereo partly drawn) ): 96

Recorded % Viability (compound COc1ccc(OC2OC3COC(c4ccccc4)OC3C(OC3OC(COC(=O)CCl)C(OC(=O)CCl)C(OC(C)=O)C3OC(C)=O)C2NC(=O)C(Cl)(Cl)Cl)cc1 (stereo not drawn) ): 70

----------
experimental_protocol: Cell viability in pre-screen (Table 1)
Format: cell-based
condition_context: 100 uM
quantity_kind: % Viability
Form field: result (number plus unit)

Consider the worked cases shown below.
- compound: "COc1ccc(OC2OC3COC(c4ccccc4)OC3C(OC3OC(COC(=O)CCC(C)=O)C(OC(=O)CCl)C(OC(C)=O)C3OC(C)=O)C2NC(=O)C(Cl)(Cl)Cl)cc1 (centres unmarked)"
  % Viability: "113%"
- compound: "COc1ccc(O[C@H]2O[C@@H]3COC(c4ccccc4)O[C@H]3[C@H](O[C@@H]3O[C@H](CO)[C@@H](O)[C@H](OC(C)=O)[C@H]3OC(C)=O)[C@H]2NC(=O)C(Cl)(Cl)Cl)cc1 (some centres unmarked)"
  % Viability: "8%"
- compound: "COc1ccc(O[C@H]2O[C@@H]3COC(c4ccccc4)O[C@H]3[C@H](O)[C@H]2NC(=O)C(Cl)(Cl)Cl)cc1 (some centres unmarked)"
  % Viability: "63%"
- compound: "COc1ccc(OC2OC3COC(c4ccccc4)OC3C(OC3OC(COC(=O)CCl)C(OC(=O)CCl)C(OC(C)=O)C3OC(C)=O)C2NC(=O)C(Cl)(Cl)Cl)cc1 (centres unmarked)"
  % Viability: "8%"

// next entry
Recorded % Viability (compound COc1ccc(O[C@H]2O[C@@H]3COC(c4ccccc4)O[C@H]3[C@H](O[C@@H]3O[C@H](COC(=O)CCC(C)=O)[C@@H](OC(C)=O)[C@H](OC(C)=O)[C@H]3OC(C)=O)[C@H]2NC(=O)C(Cl)(Cl)Cl)cc1 (some centres unmarked) ): 97%
